biological target: T1, Recombinant MBP-mutCALR Type 1 fusion protein (human); experiment: SPR, IgG captured, 1:1 fit, Exp. 2
T1 construct: custom made at Cepter; also called recombinant mutCALR protein
Parameter koff: see the listing below.

[
  {
    "binder": "anti-mutCALR antibody clone 137 (antibody, human IgG1, lambda, N297A, V domains shown, human IgG1 N297A variant of clone 15) VH: EVQLVQSGAEVKKPGASVKVSCKVSGYTLTELSMQWVRQAPGKGLEWMGGFDPDEGETMYAEKFQGRLTVTEDTSTDTVYMELRSLTSEDTALYFCATSPGYDFFDYWGQGTLVTVSS VL: SYVLTQPPSVSVAPGKTARITCGGDNIGSKSVHWYQQKPGQAPVLVVYDDSDRPSGIPERFSGSNSGNTATLTISRVEAGDEADYYCQVWDSSNDLLIFGGGTKLTVLG",
    "koff, s⁻¹": 0.0095
  },
  {
    "binder": "anti-mutCALR antibody clone 180 (antibody, human IgG1, lambda, N297A, V domains shown, human IgG1 N297A variant of clone 17) VH: EVQLVQSGAEVKKPGASVKVSCKVSGYTLTELSMQWVRQAPGKGLEWMGGFDPDDGETMYAEKFQGRLTVTEDTSTDTVYMELRSLTSEDTALYFCATSPGYDFFDYWGQGTLVTVSS VL: SYVLTQPPSVSVAPGQTARITCGGSDIGDEIVHWYQQKPGQAPVLVVYDDSDRPSGIPERFSGSNSGNTATLTISRVEAGDEADYYCQVWDSSSDHLIFGGGTKLTVLG",
    "koff, s⁻¹": 0.127
  },
  {
    "binder": "anti-mutCALR antibody clone 179 (antibody, human IgG1, lambda, N297A, V domains shown, human IgG1 N297A variant of clone 17) VH: EVQLVQSGAEVKKPGASVKVSCKVSGYTLTELSMQWVRQAPGKGLEWMGGFDPDDAETMYAEKFQGRLTVTEDTSTDTVYMELSSLRSEDTAVYFCATSPGYDFFDYWGQGTLVTVSS VL: SYVLTQPPSVSVAPGQTARITCGGSDIGDEIVHWYQQKPGQAPVLVVYDDSDRPSGIPERFSGSNSGNTATLTISRAQAGDEADYYCQVWDSSSDHLIFGGGTKLTVLG",
    "koff, s⁻¹": 0.00681
  },
  {
    "binder": "anti-mutCALR antibody clone 57 (antibody, human IgG1, lambda, N297A, V domains shown, human IgG1 N297A variant of clone 6) VH: EVQLVQSGAEVKKPGASVKVSCKVSGYTLTELSMQWVRQAPGKGLEWMGGFDPDSGETMYAEKFQGRLTVTEDTSTDTVYMELRSLTSEDTALYFCATSPGYDFFDYWGQGTLVTVSS VL: QSALTQPASVSGSPGQSITISCTGTSSDVGGYNYVSWYQQHPGKAPKLMIYEVSNRPSGVSNRFSGSNSGNTATLTINRVEAGDEADYYCQVWDSSNDLLIFGGGTKLTVLG",
    "koff, s⁻¹": 0.0039
  }
]

Data origin: patent US20230272055A1
